TARGET OR SYSTEM: Acetylcholinesterase (Rattus norvegicus)
Sequence (P37136 whole entry): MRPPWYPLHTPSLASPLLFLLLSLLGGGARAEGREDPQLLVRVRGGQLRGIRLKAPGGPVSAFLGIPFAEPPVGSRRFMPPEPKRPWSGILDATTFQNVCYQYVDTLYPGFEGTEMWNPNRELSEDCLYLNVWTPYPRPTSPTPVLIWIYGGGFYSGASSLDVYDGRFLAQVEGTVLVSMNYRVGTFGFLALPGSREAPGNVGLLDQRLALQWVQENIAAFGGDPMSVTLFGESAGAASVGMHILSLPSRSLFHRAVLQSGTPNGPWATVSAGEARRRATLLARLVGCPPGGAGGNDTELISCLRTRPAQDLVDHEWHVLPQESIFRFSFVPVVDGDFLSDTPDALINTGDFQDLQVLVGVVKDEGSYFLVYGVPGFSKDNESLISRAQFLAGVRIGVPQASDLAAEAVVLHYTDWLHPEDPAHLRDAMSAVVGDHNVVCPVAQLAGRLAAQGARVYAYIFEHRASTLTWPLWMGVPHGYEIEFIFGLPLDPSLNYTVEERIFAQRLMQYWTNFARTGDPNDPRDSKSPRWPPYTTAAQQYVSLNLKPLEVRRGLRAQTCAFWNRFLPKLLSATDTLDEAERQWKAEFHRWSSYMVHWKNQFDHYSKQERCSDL
Lab note: anything with IC50 below 2 µM is marked T; values at 2 µM or higher are marked F.

>>> group_label("CCN(CCCCOc1cc(O)c2c(=O)c(-c3ccc(O)cc3)coc2c1)Cc1ccccc1OC")
"T"
>>> group_label("COc1ccccc1CN(C)CCCCCCOc1cc(O)c2c(=O)c(-c3ccc(O)cc3)coc2c1")
"F"
>>> group_label("CN(CCCOc1cc(O)c2c(=O)c(-c3ccc(O)cc3)coc2c1)Cc1ccccc1")
"F"
>>> group_label("CCN(CCCOc1ccc(-c2coc3cc(O)cc(O)c3c2=O)cc1)Cc1ccccc1")
"F"
>>> group_label("CCN(CCCCOc1cc(O)c2c(=O)c(-c3ccc(O)cc3)coc2c1)Cc1ccccc1")
"F"
>>> group_label("COc1ccccc1CN(C)CCCCOc1ccc(-c2coc3cc(O)cc(O)c3c2=O)cc1")
"F"
>>> group_label("CCN(CCCCOc1ccc(-c2coc3cc(O)cc(O)c3c2=O)cc1)Cc1ccccc1OC")
"T"
>>> group_label("CCN(CCCCOc1ccc(-c2coc3cc(OCCCCN(CC)Cc4ccccc4)cc(O)c3c2=O)cc1)Cc1ccccc1")
"T"
>>> group_label("CCN(CCCCCCOc1ccc(-c2coc3cc(OCCCCCCN(CC)Cc4ccccc4OC)cc(O)c3c2=O)cc1)Cc1ccccc1OC")
"T"
>>> group_label("COc1ccccc1CN(C)CCCCOc1cc(O)c2c(=O)c(-c3ccc(O)cc3)coc2c1")
"F"
>>> group_label("CCN(CCCCCCOc1cc(O)c2c(=O)c(-c3ccc(O)cc3)coc2c1)Cc1ccccc1OC")
"T"
>>> group_label("CCN(CCCCCCOc1ccc(-c2coc3cc(O)cc(O)c3c2=O)cc1)Cc1ccccc1OC")
"T"
>>> group_label("CCN(CCCOc1cc(O)c2c(=O)c(-c3ccc(O)cc3)coc2c1)Cc1ccccc1OC")
"T"
>>> group_label("CN(CCCCOc1cc(O)c2c(=O)c(-c3ccc(O)cc3)coc2c1)Cc1ccccc1")
"F"
>>> group_label("CN(CCCCOc1ccc(-c2coc3cc(O)cc(O)c3c2=O)cc1)Cc1ccccc1")
"F"
>>> group_label("CN(CCCCCCOc1ccc(-c2coc3cc(O)cc(O)c3c2=O)cc1)Cc1ccccc1")
"F"
>>> group_label("CCN(CCCOc1ccc(-c2coc3cc(OCCCN(CC)Cc4ccccc4OC)cc(O)c3c2=O)cc1)Cc1ccccc1OC")
"T"
>>> group_label("CN(CCCOc1ccc(-c2coc3cc(O)cc(O)c3c2=O)cc1)Cc1ccccc1")
"F"
>>> group_label("CCN(CCCCOc1ccc(-c2coc3cc(O)cc(O)c3c2=O)cc1)Cc1ccccc1")
"F"
>>> group_label("CN(CCCCCCOc1cc(O)c2c(=O)c(-c3ccc(O)cc3)coc2c1)Cc1ccccc1")
"F"
>>> group_label("CCN(CCCCCCOc1cc(O)c2c(=O)c(-c3ccc(O)cc3)coc2c1)Cc1ccccc1")
"T"
>>> group_label("CCN(CCCOc1ccc(-c2coc3cc(O)cc(O)c3c2=O)cc1)Cc1ccccc1OC")
"F"
>>> group_label("CCN(CCCCOc1ccc(-c2coc3cc(OCCCCN(CC)Cc4ccccc4OC)cc(O)c3c2=O)cc1)Cc1ccccc1OC")
"T"
>>> group_label("COc1ccccc1CN(C)CCCOc1ccc(-c2coc3cc(O)cc(O)c3c2=O)cc1")
"F"
>>> group_label("CCN(CCCCCCOc1ccc(-c2coc3cc(O)cc(O)c3c2=O)cc1)Cc1ccccc1")
"F"
>>> group_label("CCN(CCCOc1cc(O)c2c(=O)c(-c3ccc(O)cc3)coc2c1)Cc1ccccc1")
"T"
>>> group_label("COc1ccccc1CN(C)CCCCCCOc1ccc(-c2coc3cc(O)cc(O)c3c2=O)cc1")
"F"
>>> group_label("COc1ccccc1CN(C)CCCOc1cc(O)c2c(=O)c(-c3ccc(O)cc3)coc2c1")
"F"
